Kindly state Relative Blockade of IL-13 Binding IC50 for each of the entries shown.
# Test System: T1, hIL-4Rα on cells (human, UniProt P24394 26-825)
# T1 sequence: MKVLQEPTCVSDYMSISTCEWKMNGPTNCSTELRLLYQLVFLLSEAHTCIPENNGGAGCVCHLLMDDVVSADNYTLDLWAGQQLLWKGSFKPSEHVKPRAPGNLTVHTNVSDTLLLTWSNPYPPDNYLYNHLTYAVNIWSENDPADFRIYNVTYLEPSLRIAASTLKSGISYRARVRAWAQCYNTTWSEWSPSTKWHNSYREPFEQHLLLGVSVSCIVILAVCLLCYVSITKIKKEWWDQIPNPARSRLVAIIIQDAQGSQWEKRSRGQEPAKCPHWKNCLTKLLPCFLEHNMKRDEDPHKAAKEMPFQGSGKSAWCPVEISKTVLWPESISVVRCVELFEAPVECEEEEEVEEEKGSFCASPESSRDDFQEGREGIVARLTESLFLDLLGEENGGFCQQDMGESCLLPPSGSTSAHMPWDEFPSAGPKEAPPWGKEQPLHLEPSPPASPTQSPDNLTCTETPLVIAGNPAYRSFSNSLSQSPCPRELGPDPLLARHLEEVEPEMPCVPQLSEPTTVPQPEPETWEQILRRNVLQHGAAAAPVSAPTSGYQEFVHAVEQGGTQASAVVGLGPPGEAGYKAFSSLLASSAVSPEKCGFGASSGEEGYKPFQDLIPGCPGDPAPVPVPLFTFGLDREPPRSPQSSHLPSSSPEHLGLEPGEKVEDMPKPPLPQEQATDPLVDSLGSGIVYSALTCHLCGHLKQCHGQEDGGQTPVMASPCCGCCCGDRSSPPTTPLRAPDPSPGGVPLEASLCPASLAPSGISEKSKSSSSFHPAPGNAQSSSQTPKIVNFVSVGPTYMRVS
# Protocol: FACS on HEK293 cells, competitor biotin-hIL-13;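 further: stably transduced cells co-expressing both receptor chains, stained cold, with cell-bound signal read as mean fluorescence intensity by flow cytometry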

[ask] Please report the measured Relative Blockade of IL-13 Binding IC50 for Construct 13 (mAb422) (antibody, IgG4, V domains shown, VH/VL only) VH: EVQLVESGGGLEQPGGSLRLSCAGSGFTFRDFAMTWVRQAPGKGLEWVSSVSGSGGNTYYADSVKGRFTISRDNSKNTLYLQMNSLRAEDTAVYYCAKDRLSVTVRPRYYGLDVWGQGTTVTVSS VL: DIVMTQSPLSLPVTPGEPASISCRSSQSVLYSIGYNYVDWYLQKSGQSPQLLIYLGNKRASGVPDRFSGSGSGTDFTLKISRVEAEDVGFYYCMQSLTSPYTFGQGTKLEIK
[reply] 0.882 relative to dupilumab

[ask] Give reported Relative Blockade of IL-13 Binding IC50 value for Construct 44 (mAb485) (antibody, IgG4, V domains shown, VH/VL only) VH: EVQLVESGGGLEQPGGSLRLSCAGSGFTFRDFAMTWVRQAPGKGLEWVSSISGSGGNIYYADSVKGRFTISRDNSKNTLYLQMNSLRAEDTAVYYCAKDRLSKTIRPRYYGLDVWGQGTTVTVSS VL: DIVMTQSPLSLPVTPGEPASISCRSTQSLLYSIGKNYVDWYLQKSGQSPQLLIYEGNNRASGVPDRFSGSGSGTDFTLKISRVEAEDVGFYYCMQSLTSPYTFGQGTKLEIK
[reply] 1.23 relative to dupilumab
